Recorded glycan array binding signal (z-score) values for a group of binders are listed next.
test_system: Fuc(a1-2)Gal(b1-3)GalNAc(b1-3)Gal
assay_procedure: glycan array binding signal (z-score within array); higher = stronger binding
particulars: glycan notation: IUPAC condensed, linker removed
Only a selection was taken, and the strongest signals are over-represented in it overall.

binder	glycan array binding signal (z-score)
chitinase 3-like protein 2 (Homo sapiens) (protein) YKLVCYFTQWSQDRQEPGKFTPENIDPFLCSHLIYSFASIENNKVIIKDKSEVMLYQTINSLKTKNPKLKILLSIGGYLFGSKGFHPMVDSSTSRLEFINSIILFLRNHNFDGLDVSWIYPDQKENTHFTVLIHELAEAFQKDFTKSTKERLLLTAGVSAGRQMIDNSYQVEKLAKDLDFINLLSFDFHGSWEKPLITGHNSPLSKGWQDRGPSSYYNVEYAVGYWIHKGMPSEKVVMGIPTYGHSFTLASAETTVGAPASGPGAAGPITESSGFLAYYEICQFLKGAKITRLQDQQVPYAVKGNQWVGYDDVKSMETKVQFLKNLNLGGAMIWSIDMDDFTGKSCNQGPYPLVQAVKRSLGSL	-0.164
Gal 1 (Canis lupus) (protein) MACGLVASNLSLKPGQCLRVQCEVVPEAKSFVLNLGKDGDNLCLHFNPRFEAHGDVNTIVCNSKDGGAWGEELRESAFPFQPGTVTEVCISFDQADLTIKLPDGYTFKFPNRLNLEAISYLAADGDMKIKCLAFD	-0.33
AMA (Arum maculatun) (protein) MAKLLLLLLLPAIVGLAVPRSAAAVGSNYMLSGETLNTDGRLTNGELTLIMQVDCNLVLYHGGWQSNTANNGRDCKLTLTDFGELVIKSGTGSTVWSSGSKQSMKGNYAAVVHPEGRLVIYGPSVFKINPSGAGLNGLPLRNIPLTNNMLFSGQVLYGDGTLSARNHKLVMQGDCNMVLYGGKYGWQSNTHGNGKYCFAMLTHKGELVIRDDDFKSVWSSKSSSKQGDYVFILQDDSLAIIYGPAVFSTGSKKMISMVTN	-0.21
